system: IL-4 secretion by T cells; assay: IL-4 ELISpot of spleen cells from immunized mice; assay type: in vivo, SJL/J mice; set-up: key: −: negative; +/−: very weak; +: weak; ++: moderate; +++: strong; conditions: Table 2; peptide analogues conjugated to reduced mannan-KLH
recordedEndpoint: IL-4

INSERT INTO results (substance, targetentity, recordedmeasurement) VALUES
  ('E N P V V H F F Y N I V T P R T P (ENPVVHFFYNIVTPRTP) [[Y^91]MBP83-99]', 'IL-4 secretion by T cells', '+++'),
  ('E N P V V H F F R N I V T A R T P (ENPVVHFFRNIVTARTP) [[R^91, A^96]MBP83-99]', 'IL-4 secretion by T cells', '+++'),
  ('E N P V V H F F K N I V T P R T P (ENPVVHFFKNIVTPRTP) [MBP83-99, reference compound]', 'IL-4 secretion by T cells', '−'),
  ('E N P V V H F F A N I V T P R T P (ENPVVHFFANIVTPRTP) [[A^91]MBP83-99]', 'IL-4 secretion by T cells', '+++'),
  ('cyclo(83-99)E N P V V H F F A N I V T P R T P (ENPVVHFFANIVTPRTP; cyclised or stapled) [cyclo(83-99)[A^91]MBP83-99]', 'IL-4 secretion by T cells', '−'),
  ('E N P V V H F F F N I V T P R T P (ENPVVHFFFNIVTPRTP) [[F^91]MBP83-99]', 'IL-4 secretion by T cells', '+++'),
  ('E N P V V H F F E N I V T P R T P (ENPVVHFFENIVTPRTP) [[E^91]MBP83-99]', 'IL-4 secretion by T cells', '+++');
